System: 624824-186-R-J2-PDC multicell spheroids, viability
Experiment: Anticancer human tumor 624824-186-R-J2-PDC patient-derived colon adenocarcinoma cell line growth inhibition [PI3K]
Conditions: second compound 0.0316 µM; first compound 0.00949 µM; hits give low values
Form field: viability, T/C (one value per entry).
PROPERTY NAME: viability, T/C (%)

1) Cn1cnc2c(F)c(Nc3ccc(Br)cc3Cl)c(C(=O)NOCCO)cc21 + CC(Nc1ccc2c(c1)OCCn1cc(N3C(=O)OCC3C(F)F)nc1-2)C(N)=O : 72.1
2) Cn1cnc2c(F)c(Nc3ccc(Br)cc3Cl)c(C(=O)NOCCO)cc21 + CC(Nc1ncnc2nc[nH]c12)c1cc2cccc(Cl)c2c(=O)n1-c1ccccc1 : 73.3
3) Cn1cnc2c(F)c(Nc3ccc(Br)cc3Cl)c(C(=O)NOCCO)cc21 + Cc1nc(NC(=O)N2CCCC2C(N)=O)sc1-c1ccnc(C(C)(C)C(F)(F)F)c1 : 90.2
4) Cn1cnc2c(F)c(Nc3ccc(Br)cc3Cl)c(C(=O)NOCCO)cc21 + COc1c(OCCCN2CCOCC2)ccc2c3n(c(=NC(=O)c4cnc(N)nc4)nc12)CCN3 : 70.8

----------
Tested on: 624824-186-R-J2-PDC multicell spheroids, viability
Assay: Anticancer human tumor 624824-186-R-J2-PDC cell line growth inhibition [PI3K];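 further: spheroids exposed to agents for 7 days before viability read; 100% = DMSO vehicle treated spheroids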
Conditions: second compound 0.1 µM; first compound 3.16 µM; hits give low values
Class assignment keyed on viability, T/C, ranges low (below 70%), intermediate (70% to below 80%), high (80% or more)

1) CC(Cn1ccc(-c2ccc(C#N)c(Cl)c2)n1)NC(=O)c1cc(C(C)O)[nH]n1 (configuration not stated) + Cc1nc(NC(=O)N2CCCC2C(N)=O)sc1-c1ccnc(C(C)(C)C(F)(F)F)c1 : high
2) CCCS(=O)(=O)Nc1ccc(F)c(C(=O)c2c[nH]c3ncc(-c4ccc(Cl)cc4)cc23)c1F + CC(Nc1ccc2c(c1)OCCn1cc(N3C(=O)OCC3C(F)F)nc1-2)C(N)=O : intermediate
3) Cn1ncc(Cl)c1-c1cc(C(=O)NC(CN)Cc2cccc(F)c2)sc1Cl (configuration not stated) + Cc1nc(NC(=O)N2CCCC2C(N)=O)sc1-c1ccnc(C(C)(C)C(F)(F)F)c1 : low
4) CC1(C)CCC(Nc2ncc(C(F)(F)F)c(-c3c[nH]c4c(P(C)(C)=O)c(C#N)ccc34)n2)CN1 (configuration not stated) + Cc1nc(NC(=O)N2CCCC2C(N)=O)sc1-c1ccnc(C(C)(C)C(F)(F)F)c1 : low
5) CC(C)NCC(C(=O)N1CCN(c2ncnc3c2C(C)CC3O)CC1)c1ccc(Cl)cc1 (configuration not stated) + CC(Nc1ncnc2nc[nH]c12)c1cc2cccc(Cl)c2c(=O)n1-c1ccccc1 : high
6) CNC(=O)c1ccc(N2C(=S)N(c3ccc(C#N)c(C(F)(F)F)c3)C(=O)C2(C)C)cc1F + Cc1nc(NC(=O)N2CCCC2C(N)=O)sc1-c1ccnc(C(C)(C)C(F)(F)F)c1 : high
7) CC1(C)CCC(CN2CCN(c3ccc(C(=O)NS(=O)(=O)c4ccc(NCC5CCOCC5)c([N+](=O)[O-])c4)c(Oc4cnc5[nH]ccc5c4)c3)CC2)=C(c2ccc(Cl)cc2)C1 + COc1c(OCCCN2CCOCC2)ccc2c3n(c(=NC(=O)c4cnc(N)nc4)nc12)CCN3 : intermediate
8) CNC(=O)c1ccc(N2C(=S)N(c3ccc(C#N)c(C(F)(F)F)c3)C(=O)C2(C)C)cc1F + CC(Nc1ncnc2nc[nH]c12)c1cc2cccc(Cl)c2c(=O)n1-c1ccccc1 : high
9) CCCS(=O)(=O)Nc1ccc(F)c(C(=O)c2c[nH]c3ncc(-c4ccc(Cl)cc4)cc23)c1F + COc1c(OCCCN2CCOCC2)ccc2c3n(c(=NC(=O)c4cnc(N)nc4)nc12)CCN3 : low
10) Cn1ncc(Cl)c1-c1cc(C(=O)NC(CN)Cc2cccc(F)c2)sc1Cl (configuration not stated) + CC(Nc1ncnc2nc[nH]c12)c1cc2cccc(Cl)c2c(=O)n1-c1ccccc1 : low
11) C[C@@H](NC(=O)c1ncnc(N)c1Cl)c1ncc(C(=O)Nc2cc(C(F)(F)F)c(Cl)cn2)s1 + CC(Nc1ccc2c(c1)OCCn1cc(N3C(=O)OCC3C(F)F)nc1-2)C(N)=O : intermediate
12) CC1(C)CCC(Nc2ncc(C(F)(F)F)c(-c3c[nH]c4c(P(C)(C)=O)c(C#N)ccc34)n2)CN1 (configuration not stated) + CC(Nc1ccc2c(c1)OCCn1cc(N3C(=O)OCC3C(F)F)nc1-2)C(N)=O : low
13) CC1(C)CCC(CN2CCN(c3ccc(C(=O)NS(=O)(=O)c4ccc(NCC5CCOCC5)c([N+](=O)[O-])c4)c(Oc4cnc5[nH]ccc5c4)c3)CC2)=C(c2ccc(Cl)cc2)C1 + CC(Nc1ncnc2nc[nH]c12)c1cc2cccc(Cl)c2c(=O)n1-c1ccccc1 : low
